The values you see were collected from paper PMC3155955.

- Tested on: Caco-2 human colon cancer cells
- experiment-description: MTS cytotoxicity assay, Caco-2
- Type: cell-based
- protocol-conditions: Caco-2, read-out: IC50 (consistent values of the control)
measurement-label: IC50

Read off the recorded IC50 for COc1cc([C@@H]2c3cc4c(cc3[C@@H](O[C@@H]3O[C@@H]5CO[C@@H](C)O[C@H]5[C@H](O)[C@H]3O)[C@H]3COC(=O)[C@H]23)OCO4)cc(OC)c1O [etoposide]
15 to 25 µM
